Origin of measurements: patent US11332470B2

target: CXCR4 (Jurkat cells expressing CXCR4) (Homo sapiens); construct: Jurkat cells expressing CXCR4; endogenous in cells; assay: Chemokine (CXCL12-AF647) binding inhibition assay; conditions: CXCL12-AF647 25 ng/mL, read-out: IC50 CXCL-12 binding Jurkat
Reported IC50 values are given for each entry in this list.
MEASURE_NAME: IC50

| COMPOUND | ENDPOINT_RESULT |
| --- | --- |
| CN1CCN(c2c(CN3CCCC3c3ccccn3)nc3cccc(F)n23)CC1 (centres unmarked) [Compound I-64] | 0.01 to 100 nM |
| CN1CCC(n2c(CN3CCCC3c3ccccn3)nc3ccccc32)CC1 (centres unmarked) [Compound I-54] | 0.01 to 100 nM |
| CN1CCN(c2cccc3nc(CN4CCCC4c4nccs4)[nH]c23)CC1 (centres unmarked) [Compound I-49] | ≥ 1000 nM |
| c1ccc(C2CCCN2Cc2ccccc2-n2cccn2)nc1 (centres unmarked) [Compound I-65] | 100 to 1000 nM |
| CN1CCN(c2cccnc2CN2CCCC2c2ccccn2)CC1 (centres unmarked) [Compound I-56] | 100 to 1000 nM |

---

experiment: in vitro; conditions: human, Caco-2, pH 7.4
MEASURE_NAME: Papp B→A at 90 min, 10 μM

| COMPOUND | ENDPOINT_RESULT |
| --- | --- |
| CN1CCN(c2cccc3nc(CN4CCCC4c4ncccc4Cl)cn23)CC1 (stereo not drawn) | 10 to 30 ×10⁻⁶ cm/s |
| CN1CCN(c2c(CN3CCCC3c3ccccn3)nc3cc(F)ccn23)CC1 (stereo not drawn) | 10 to 30 ×10⁻⁶ cm/s |
| Cc1cccnc1C1CCCN1Cc1ncccc1N1CCN(C)CC1 (stereo not drawn) | 10 to 30 ×10⁻⁶ cm/s |
| CN1CCN(c2c(CN3CCCC3c3ccccn3)nc3ccc(F)cn23)CC1 (stereo not drawn) | 10 to 30 ×10⁻⁶ cm/s |
| Cc1cccnc1C1CCCCN1Cc1cn2c(N3CCN(C)CC3)cccc2n1 (stereo not drawn) | 10 to 30 ×10⁻⁶ cm/s |
| CN1CCN(c2c(CN3CCCC3c3ccccn3)nc3cccc(F)n23)CC1 (stereo not drawn) | 10 to 30 ×10⁻⁶ cm/s |
| CN1CCN(c2cccc3nc(C4CCCN4Cc4ncccn4)[nH]c23)CC1 (stereo not drawn) | > 30 ×10⁻⁶ cm/s |
| Cc1cccnc1C1CCCN1Cc1cn2c(CCC#N)cccc2n1 (stereo not drawn) | > 30 ×10⁻⁶ cm/s |
| Cc1cccnc1C1CCCN1Cc1cn2c(N3CCN(C4CC4)CC3)cccc2n1 (stereo not drawn) | 10 to 30 ×10⁻⁶ cm/s |

---

target: CXCR4 (Jurkat cells expressing CXCR4) (Homo sapiens, UniProt P61073); construct: Jurkat cells expressing CXCR4; endogenous in cells; experiment: Chemokine (CXCL12-AF647) binding inhibition assay; settings: CXCL12-AF647 25 ng/mL, read-out: IC50 CXCL-12 binding Jurkat
Sequence (P61073 whole entry): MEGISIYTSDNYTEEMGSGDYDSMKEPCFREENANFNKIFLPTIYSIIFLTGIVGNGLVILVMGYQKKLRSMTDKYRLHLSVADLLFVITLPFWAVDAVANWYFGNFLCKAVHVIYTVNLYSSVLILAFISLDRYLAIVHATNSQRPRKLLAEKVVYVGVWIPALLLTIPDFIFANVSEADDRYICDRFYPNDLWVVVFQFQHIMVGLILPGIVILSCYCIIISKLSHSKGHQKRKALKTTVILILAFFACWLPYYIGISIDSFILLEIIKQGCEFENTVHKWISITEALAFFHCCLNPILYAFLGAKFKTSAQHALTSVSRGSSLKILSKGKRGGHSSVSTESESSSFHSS
pIC50: −log10 of the molar value.
MEASURE_NAME: pIC50

| COMPOUND | MEASURE_NAME | ENDPOINT_RESULT |
| --- | --- | --- |
| Cc1cccnc1C1CCCN1Cc1ncccc1CC1CCN(C)CC1 (stereo not shown) [Compound I-117] | pIC50 | 7.00 to 11.00 |
| CN1CC=C(c2c(CN3CCCC3c3ccccn3)nc3ccccn23)CC1 (stereo not shown) [Compound I-79] | pIC50 | 7.00 to 11.00 |
| CN1CCN(c2c(C3CCCN3Cc3ccccn3)nc3ccccn23)CC1 (stereo not shown) [Compound I-101] | pIC50 | 7.00 to 11.00 |
| Cc1cccnc1C1CCCN1Cc1nc2c(N3CCN(C)CC3)cccc2o1 (stereo not shown) [Compound I-72] | pIC50 | ≤ 6.00 |
